test: Partition coefficient (logP); type: physicochemical; conditions: octanol/water
PARAMETER_MEASURED: logP

{"columns": ["COMPOUND", "logP"],
 "data": [
  ["OCC1CC(F)C(n2cnc3c(I)ncnc32)O1 (stereo unspecified)", 0.627],
  ["OCC1CC(F)C(n2cnc3c(F)ncnc32)O1 (stereo unspecified)", 0.056]
]}

1. Cc1cn([C@H]2C[C@H](N=[N+]=[N-])[C@@H](CO)O2)c(=O)[nH]c1=O
2. CCOc1ncnc2c1ncn2C1OC(CO)CC1F (stereo unspecified)
3. OCC1CC(F)C(n2cnc3c(Br)ncnc32)O1 (stereo unspecified)
4. COc1ncnc2c1ncn2C1OC(CO)CC1F (stereo unspecified)
[in] Rank descending by logP. Would you mind listing the labels in the order asked for?
[out] 2, 3, 4, 1

----------
assay: Half-life time was determined; format: ADME
PARAMETER_MEASURED: half-life (h)

{"columns": ["COMPOUND", "PARAMETER_MEASURED", "UNIT_SPEC", "REPORTED_RESULT"],
 "data": [
  ["CCOc1ncnc2c1ncn2C1OC(CO)CC1F (stereo not given)", "half-life", "h", 29.2],
  ["OCC1CC(F)C(n2cnc3c(Cl)ncnc32)O1 (stereo not given)", "half-life", "h", 91.7],
  ["OCC1CC(F)C(n2cnc3c(I)ncnc32)O1 (stereo not given)", "half-life", "h", 20.9]
]}

P. OCC1CC(F)C(n2cnc3c(Br)ncnc32)O1 (stereo not given)
Q. COc1ncnc2c1ncn2C1OC(CO)CC1F (stereo not given)
[in] Looking only at measured half-life, which entry is lower, P or Q ? Give the label of your selection.
[out] Q

----------
system: PBMC; assay: % protection was determined as the percent reduction in HIV p24 Gag protein production using PHA/PBM system at 40 uM concentration.; format: functional, Homo sapiens
PARAMETER_MEASURED: Protection (%)
Report only the number, with the unit % understood.

Please review the entries below; each comes with its answer.
{"columns": ["MOLECULE", "PARAMETER_MEASURED", "REPORTED_RESULT"],
 "data": [
  ["OCC1CC(F)C(n2cnc3c(I)ncnc32)O1 (stereo not drawn)", "Protection", 96],
  ["COc1ncnc2c1ncn2C1OC(CO)CC1F (stereo not drawn)", "Protection", 75],
  ["OCC1CC(F)C(n2cnc3c(Cl)ncnc32)O1 (stereo not drawn)", "Protection", 97],
  ["OCC1CC(F)C(n2cnc3c(Br)ncnc32)O1 (stereo not drawn)", "Protection", 97],
  ["OCC1CC(F)C(n2cnc3c(F)ncnc32)O1 (stereo not drawn)", "Protection", 99]
]}

[in] // map CCOc1ncnc2c1ncn2C1OC(CO)CC1F (stereo not drawn) to recorded Protection (system: PBMC)
[out] 79

[in] Then this molecule: OCC1CC(F)C(n2cnc3c(O)ncnc32)O1 (stereo not drawn)
[out] 97

[in] Cool, now `O=c1[nH]cnc2c1ncn2[C@H]1CC[C@@H](CO)O1`
[out] 98

----------
Below is a list of entries, each paired with its recorded Protection value.
system: PBMC; test: % protection was determined as the percent reduction in HIV p24 Gag protein production using PHA/PBM system at 80 uM concentration.; type: functional, Homo sapiens
Give the value, in units of %, as a plain number.

{"columns": ["COMPOUND", "Protection (%)"],
 "data": [
  ["O=c1[nH]cnc2c1ncn2[C@H]1CC[C@@H](CO)O1 [DIDANOSINE]", 98],
  ["OCC1CC(F)C(n2cnc3c(O)ncnc32)O1 (configuration not stated)", 98],
  ["OCC1CC(F)C(n2cnc3c(F)ncnc32)O1 (configuration not stated)", 99],
  ["COc1ncnc2c1ncn2C1OC(CO)CC1F (configuration not stated)", 92],
  ["OCC1CC(F)C(n2cnc3c(I)ncnc32)O1 (configuration not stated)", 96],
  ["OCC1CC(F)C(n2cnc3c(Br)ncnc32)O1 (configuration not stated)", 99]
]}

Next up:
[in] Please provide the recorded Protection for CCOc1ncnc2c1ncn2C1OC(CO)CC1F (configuration not stated) , tested on PBMC.
[out] 93

----------
Molecular target: Adenosine deaminase (Bos taurus) (UniProt P56658)
Sequence (whole entry): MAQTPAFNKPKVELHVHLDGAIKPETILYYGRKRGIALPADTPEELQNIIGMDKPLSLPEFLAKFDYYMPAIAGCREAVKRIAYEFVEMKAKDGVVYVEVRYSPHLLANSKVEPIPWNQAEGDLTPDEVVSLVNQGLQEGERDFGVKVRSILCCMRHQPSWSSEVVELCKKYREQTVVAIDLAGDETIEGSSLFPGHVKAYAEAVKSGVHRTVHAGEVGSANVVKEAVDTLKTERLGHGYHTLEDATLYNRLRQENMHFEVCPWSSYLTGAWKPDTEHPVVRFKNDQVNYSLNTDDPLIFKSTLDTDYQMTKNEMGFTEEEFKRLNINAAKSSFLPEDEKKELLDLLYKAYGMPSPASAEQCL
Assay: Relative Adenosine deaminase hydrolysis rate was determined in vitro by disappearance of the substrate […] on isolated enzyme
PARAMETER_MEASURED: Activity

// solved cases for Activity follow
{"columns": ["COMPOUND", "REPORTED_RESULT"],
 "data": [
  ["OCC1CC(F)C(n2cnc3c(Br)ncnc32)O1 (stereo unspecified)", 1.7],
  ["OCC1CC(F)C(n2cnc3c(Cl)ncnc32)O1 (stereo unspecified)", 2]
]}

1. CCOc1ncnc2c1ncn2C1OC(CO)CC1F (stereo unspecified)
2. OCC1CC(F)C(n2cnc3c(I)ncnc32)O1 (stereo unspecified)
3. COc1ncnc2c1ncn2C1OC(CO)CC1F (stereo unspecified)
4. OCC1CC(F)C(n2cnc3c(F)ncnc32)O1 (stereo unspecified)
[in] Let's sort these by Activity, smallest first. Go ahead? In plain terms: list the labels in the order you were asked to.
[out] 1, 2, 3, 4

----------
target: Adenosine deaminase (Bos taurus); assay: Relative Adenosine deaminase hydrolysis rate was determined in vitro by appearance of the F-ddI […] on isolated enzyme
PARAMETER_MEASURED: Activity

{"columns": ["MOLECULE", "Activity"],
 "data": [
  ["OCC1CC(F)C(n2cnc3c(Cl)ncnc32)O1 (stereo not given)", 1.6]
]}

1. OCC1CC(F)C(n2cnc3c(Br)ncnc32)O1 (stereo not given)
2. OCC1CC(F)C(n2cnc3c(F)ncnc32)O1 (stereo not given)
3. OCC1CC(F)C(n2cnc3c(I)ncnc32)O1 (stereo not given)
4. COc1ncnc2c1ncn2C1OC(CO)CC1F (stereo not given)
[in] Put the entries in order of Activity, starting with the largest number. The response must list the labels following the requested ordering.
[out] 2, 1, 4, 3
(2: 233, 1: 1.5, 4: 0.64, 3: 0.21)
